Quick list: Classification per entry.
assay-system: GST-KIAA807 [GST: P08515]
Sequence (P08515 whole entry): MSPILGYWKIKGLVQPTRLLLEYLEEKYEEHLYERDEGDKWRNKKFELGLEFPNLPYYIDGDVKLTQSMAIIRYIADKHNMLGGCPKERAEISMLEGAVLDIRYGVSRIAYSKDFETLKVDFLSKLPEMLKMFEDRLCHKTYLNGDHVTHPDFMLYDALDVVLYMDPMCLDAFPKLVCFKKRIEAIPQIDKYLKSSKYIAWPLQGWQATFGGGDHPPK
test-summary: G' assay; note: key of the grades not given here
Give the number; A450 class is assumed, so skip it.

PVYIVQEMPPQSPANIYYKV (modifications not checked) [ephrin B1] | 1
DAKLKSDGTIAAITEKETHF (modifications not checked) [GABA transporter 3] | 1
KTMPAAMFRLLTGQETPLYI (modifications not checked) [MINT-2] | 3
ESSGTQSPKRHSGSYLVTSV (modifications not checked) [APC-adenomatous polyposis coli protein] | 1
LLNVLQRQELGDGLDDEIAV (modifications not checked) [CAPON (carboxyl-terminal PDZ ligand of neuronal nitric oxide synthase) mRNA] | 1

Now turn to the next binder.
IN: Identify the reported Classification for the following entry. KDSRPSFVGSSSGHTSTTL (modifications not checked) [CDw128B]
OUT: 5
